Measured values drawn from patent US8530663B2 for this set.

TARGET_OF_ASSAY: hSERT (Homo sapiens, UniProt P31645)
Construct: expressed in transfected cells; host or cells: HEK-293
Sequence (P31645 whole entry): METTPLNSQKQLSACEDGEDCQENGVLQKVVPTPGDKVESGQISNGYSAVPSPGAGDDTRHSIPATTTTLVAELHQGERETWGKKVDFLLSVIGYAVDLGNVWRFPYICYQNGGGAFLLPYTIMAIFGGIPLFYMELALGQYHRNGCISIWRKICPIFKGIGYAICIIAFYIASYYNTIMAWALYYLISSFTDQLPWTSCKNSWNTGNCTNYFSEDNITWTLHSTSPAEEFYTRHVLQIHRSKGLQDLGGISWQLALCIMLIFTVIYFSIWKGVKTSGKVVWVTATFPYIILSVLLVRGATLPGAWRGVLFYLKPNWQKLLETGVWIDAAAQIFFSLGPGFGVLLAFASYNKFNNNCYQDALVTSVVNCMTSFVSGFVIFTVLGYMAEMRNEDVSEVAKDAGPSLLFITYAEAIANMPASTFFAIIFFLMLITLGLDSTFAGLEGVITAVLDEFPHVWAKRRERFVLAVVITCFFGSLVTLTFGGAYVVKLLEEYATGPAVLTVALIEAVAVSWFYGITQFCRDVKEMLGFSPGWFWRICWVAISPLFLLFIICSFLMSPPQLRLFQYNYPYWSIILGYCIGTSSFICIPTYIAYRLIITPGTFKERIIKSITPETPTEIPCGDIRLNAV
PROTOCOL_SUMMARY: hSERT membrane radioligand binding assay (3H-citalopram)
MEASUREMENT_PARAMETERS: hSERT membranes, 1.0 nM 3H-citalopram
MEASUREMENT_TYPE: SERT pKi

// solved cases for SERT pKi follow
                                   compound  measurement_type  reading
0  Fc1cc(F)c(OCc2ccsc2C2CCNCC2)c(F)c1 [Example 31-3]          SERT pKi     ≧7.0
1  c1ccc(OCc2ccncc2C2CCNCC2)cc1 [Example 10-1]          SERT pKi     ≧6.0
2  Clc1cccc(OCc2cccnc2C2CCNCC2)c1 [Example 14-3]          SERT pKi     ≧7.0
3  Fc1cccc(Cl)c1OCc1sccc1C1CCNCC1 [Example 25-3]          SERT pKi     ≧7.0
4  Clc1cccc(Cl)c1OCc1ccncc1C1CCNCC1 [Example 10-5]          SERT pKi     ≧7.0
5  Fc1ccc(F)c(OCc2cnccc2C2CCNCC2)c1F [Example 6-6]          SERT pKi     ≧7.0

Query: Specify SERT pKi for Fc1cc(Cl)cc(F)c1OCc1cscc1C1CCNCC1 [Example 28-4] and stop.
Result: ≧7.0

Query: Specify SERT pKi for Fc1ccc(F)c(OCc2sccc2C2CCNCC2)c1F [Example 25-4] and stop.
Result: ≧6.0

Query: Specify SERT pKi for Fc1cccc(Cl)c1OCc1ccncc1C1CCNCC1 [Example 10-4] and stop.
Result: ≧7.0

Query: Specify SERT pKi for Clc1cccc(OCc2ccncc2C2CCNCC2)c1 [Example 10-6] and stop.
Result: ≧7.0

###

TARGET_OF_ASSAY: hSERT (Homo sapiens)
Construct: expressed in transfected cells; host or cells: HEK-293
PROTOCOL_SUMMARY: hSERT membrane radioligand binding assay (3H-citalopram)
MEASUREMENT_PARAMETERS: hSERT membranes, 1.0 nM 3H-citalopram
MEASUREMENT_TYPE: SERT pKi

// solved cases for SERT pKi follow
>>> print(df.to_string())
                      chemical_string  measurement_type  reading
0      Fc1cccc(F)c1OCc1cccnc1C1CCNCC1          SERT pKi     ≧6.0
1  Fc1cc(Cl)cc(F)c1OCc1ncccc1C1CCNCC1          SERT pKi     ≧7.0
2     Fc1cccc(Cl)c1OCc1ncccc1C1CCNCC1          SERT pKi     ≧7.0
3     Clc1cccc(Cl)c1OCc1sccc1C1CCNCC1          SERT pKi     ≧7.0
4          Fc1ccccc1OCc1cscc1C1CCNCC1          SERT pKi     ≧7.0

Query: Specify SERT pKi for `Clc1cccc(OCc2ccsc2C2CCNCC2)c1` and stop.
Result: ≧7.0

Query: Specify SERT pKi for `Fc1ccccc1OCc1ccncc1C1CCNCC1` and stop.
Result: ≧7.0

Query: Specify SERT pKi for `Fc1ccc(F)c(OCc2cccnc2C2CCNCC2)c1F` and stop.
Result: ≧7.0

Query: Specify SERT pKi for `Fc1cc(Cl)cc(F)c1OCc1ccncc1C1CCNCC1` and stop.
Result: ≧7.0

Query: Specify SERT pKi for `Fc1cccc(F)c1OCc1sccc1C1CCNCC1` and stop.
Result: ≧6.0

Query: Specify SERT pKi for `Fc1cc(F)c(OCc2cnccc2C2CCNCC2)c(F)c1` and stop.
Result: ≧7.0

Query: Specify SERT pKi for `Fc1ccc(F)c(OCc2cnccc2C2CCNCC2)c1Cl` and stop.
Result: ≧7.0

Query: Specify SERT pKi for `Fc1cccc(Cl)c1OCc1cnccc1C1CCNCC1` and stop.
Result: ≧7.0
